- tgt: SLAMF9 protein (UniProt Q96A28 19-236, limits assumed)
- Sequence (Q96A28 19-236 limits assumed): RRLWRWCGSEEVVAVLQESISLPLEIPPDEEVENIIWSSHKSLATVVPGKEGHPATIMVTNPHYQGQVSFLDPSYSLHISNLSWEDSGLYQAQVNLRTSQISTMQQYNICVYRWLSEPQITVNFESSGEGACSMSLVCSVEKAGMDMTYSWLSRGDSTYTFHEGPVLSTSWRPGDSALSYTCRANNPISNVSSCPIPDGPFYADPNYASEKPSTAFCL
- testMethodNotes: phage clone on SLAMF9 protein
parameter: binding result

binder | observedResult
ET200-107 (scFv, screened as phage clone; entry is VL-linker-VH-His tag-HA tag) scFv: QSVVTQPPSVSAAPGEKVTISCSGSNFNVGNNDVSWYQQLPGAAPKLLIYDNNKRPSGIPDRFSGSKSGTSATLDITGLHSDDEADYYCGTWDSSLNTGGVFGTGTKVTVLGSRGGGGSGGGGSGGGGSLEMAEVQLVQSGAEVKKPGASVKVSCKASGYTFTSYTISWVRQAPGQGLEWMGWISTYNGLTNYAQNLQGRVTMTTDTFTTTAYMELRSLRSDDTAVYYCVREGSPDYGDFASFDYWGQGTLVTVSSTSGQAGQHHHHHHGAYPYDVPDYAS | no binding
ET200-011 (scFv, screened as phage clone; entry is VL-linker-VH-His tag-HA tag) scFv: QSVVTQPPSVSAAPGQRVTISCSGSSSNISIYDVSWYQQLPGTAPKLLIYGNNKRPSGIADRFSGSTSGTSATLGITGLQTGDEADYYCGTWDDSLSGGVFGGGTKLTVLGSRGGGGSGGGGSGGGGSLEMAQMQLVQSGAEVKKPGSSVKVSCEASGGTLSSYAINWVRQAPGQGLEWMGGIIPMFGTAHYAQKFQGRVTITADESTKTAYMELSSLRSEDTAVYYCARGVHYASFDHWGQGTLVTVSSTSGQAGQHHHHHHGAYPYDVPDYAS | no binding
